Tested on: HCV replicon
ASSAY_PROCEDURE: HCV replicon luciferase reporter assay
Assay type: cell-based
PARTICULARS: Hepatitis C virus, Table 5; read-out: IC50
REPORTED_METRIC: IC50

Worked set:
{"columns": ["STRUCTURE_STRING", "IC50"],
 "data": [
  ["CS(=O)(=O)c1ccc(-c2cccc(C(=O)NCCCNc3nsc4ccccc34)n2)cc1", "< 5 µM"],
  ["COc1ccc(-c2ccc(CNCCCNc3nsc4ccccc34)cc2)cc1OC", "< 5 µM"],
  ["O=C(NCCCNc1nsc2ccccc12)c1cnc(O)c(Cl)c1", "> 5 µM"],
  ["COC(=O)c1cccc(C(=O)NCCNc2nsc3ccccc23)n1", "> 5 µM"],
  ["O=C(NCCCNc1nsc2ncccc12)C1CCN(c2nccc(C(F)(F)F)n2)CC1", "< 5 µM"],
  ["c1ccc2c(NCCCNc3nsc4ccccc34)nsc2c1", "< 5 µM"]
]}

Hello, I would appreciate it if you could give IC50 for each entry below.
1. COc1ccc(S(=O)(=O)NCCCNc2nsc3ccccc23)cc1OC
2. COc1cccc(COc2ccc(C(=O)NCCCNc3nsc4ccccc34)cc2)c1

1. < 5 µM
2. < 5 µM

Please report the recorded IC50 for `Clc1cccc(NCCCNc2nsc3ccccc23)n1` .
< 5 µM
